# TEST_SYSTEM: Recombinant M. tuberculosis MbtI (Mycobacterium tuberculosis, UniProt P9WFX1)
# Sequence (P9WFX1 whole entry): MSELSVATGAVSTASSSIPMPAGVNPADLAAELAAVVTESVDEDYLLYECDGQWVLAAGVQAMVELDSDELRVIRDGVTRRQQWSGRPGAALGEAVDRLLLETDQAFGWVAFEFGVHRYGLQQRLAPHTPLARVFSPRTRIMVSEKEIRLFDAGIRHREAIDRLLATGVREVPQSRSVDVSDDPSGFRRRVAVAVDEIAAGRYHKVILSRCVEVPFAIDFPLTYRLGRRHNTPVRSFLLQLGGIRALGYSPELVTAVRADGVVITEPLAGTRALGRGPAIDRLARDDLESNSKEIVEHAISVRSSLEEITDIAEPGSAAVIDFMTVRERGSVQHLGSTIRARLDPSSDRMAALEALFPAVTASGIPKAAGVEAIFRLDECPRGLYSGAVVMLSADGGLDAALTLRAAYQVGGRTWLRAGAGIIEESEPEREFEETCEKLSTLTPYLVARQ
# EXPERIMENT: MbtI enzymatic assay (fluorimetric)
# TEST_SETTINGS: MbtI activity; calculated for compounds showing %RA < 20
VALUE_KIND: IC50

INSERT INTO assay_data (molecule, test_system, value_kind, recorded_value) VALUES
  ('N#Cc1cc(OCCOc2ccccc2)cc(-c2ccc(C(=O)O)o2)c1 [1f]', 'Recombinant M. tuberculosis MbtI (Mycobacterium tuberculosis, UniProt P9WFX1)', 'IC50', '12.1 µM'),
  ('N#Cc1cc(OCc2ccc3ccccc3c2)cc(-c2ccc(C(=O)O)o2)c1 [1j]', 'Recombinant M. tuberculosis MbtI (Mycobacterium tuberculosis, UniProt P9WFX1)', 'IC50', '34.8 µM'),
  ('N#Cc1cc(Oc2ccc3ccccc3c2)cc(-c2ccc(C(=O)O)o2)c1 [1h]', 'Recombinant M. tuberculosis MbtI (Mycobacterium tuberculosis, UniProt P9WFX1)', 'IC50', '16.3 µM'),
  ('N#Cc1cc(Oc2ccc3cccnc3c2)cc(-c2ccc(C(=O)O)o2)c1 [1i]', 'Recombinant M. tuberculosis MbtI (Mycobacterium tuberculosis, UniProt P9WFX1)', 'IC50', '16.6 µM'),
  ('N#Cc1cc(Oc2ccccc2)cc(-c2ccc(C(=O)O)o2)c1 [1a]', 'Recombinant M. tuberculosis MbtI (Mycobacterium tuberculosis, UniProt P9WFX1)', 'IC50', '23.1 µM'),
  ('N#Cc1cc(OC/C=C/c2ccccc2)cc(-c2ccc(C(=O)O)o2)c1 [1e]', 'Recombinant M. tuberculosis MbtI (Mycobacterium tuberculosis, UniProt P9WFX1)', 'IC50', '13.5 µM'),
  ('N#Cc1cc(OCc2ccccc2)cc(-c2ccc(C(=O)O)o2)c1 [1b]', 'Recombinant M. tuberculosis MbtI (Mycobacterium tuberculosis, UniProt P9WFX1)', 'IC50', '15.6 µM');
